# Tested target: T1, Ala mutant SEQ ID NO: 37 (human)
# T1 sequence (peptide): EENMDDQWMQAEMEIGY
# Assay notes: ELISA, peptide on plate (10 ug/mL)
Measured parameter: absorbance 490 nm/630 nm (OD)
Report the value in OD with no unit label.

G6 (antibody, IgG1, V domains shown) VH: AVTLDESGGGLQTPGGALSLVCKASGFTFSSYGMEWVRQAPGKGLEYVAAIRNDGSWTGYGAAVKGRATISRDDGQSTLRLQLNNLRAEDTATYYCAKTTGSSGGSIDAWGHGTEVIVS VL: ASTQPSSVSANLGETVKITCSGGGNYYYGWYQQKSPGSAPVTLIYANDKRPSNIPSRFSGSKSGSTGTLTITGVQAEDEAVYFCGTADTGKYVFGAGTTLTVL | 1.85
A11 (antibody, IgG1, V domains shown) VH: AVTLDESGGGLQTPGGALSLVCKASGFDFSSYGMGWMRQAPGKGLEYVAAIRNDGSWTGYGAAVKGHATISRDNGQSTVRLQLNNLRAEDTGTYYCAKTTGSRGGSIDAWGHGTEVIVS VL: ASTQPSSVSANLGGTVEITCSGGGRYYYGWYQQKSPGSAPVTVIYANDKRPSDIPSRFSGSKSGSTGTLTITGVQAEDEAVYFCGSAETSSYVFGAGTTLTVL | 1.8

response.value for G8 (antibody, IgG1, V domains shown) VH: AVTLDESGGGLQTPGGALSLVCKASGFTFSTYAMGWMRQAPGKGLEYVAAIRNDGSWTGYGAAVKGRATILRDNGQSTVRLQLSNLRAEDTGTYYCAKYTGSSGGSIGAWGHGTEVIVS VL: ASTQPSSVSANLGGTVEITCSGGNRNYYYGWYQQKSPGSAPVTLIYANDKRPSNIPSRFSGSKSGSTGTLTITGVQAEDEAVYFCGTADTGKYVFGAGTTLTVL (field: absorbance 490 nm/630 nm) = 1.88
